Biological target: Transmembrane protease serine 4 (Homo sapiens)
Test: Inhibition of TMPRSS4 serine protease domain (Val 205 to Leu 437 residues) (unknown origin) expressed in Escherichia coli BL21 (DE3) at 30 uM using […]-Gln-Ala-Arg-7-amido-4-methylcoumarin hydrochloride substrate and measured for 5 mins at 5 mins intervals by fluorescence based assay relative to control
endpoint: inhibition (%)

[
  {
    "smi": "O=C(Nc1ccc(C(F)(F)F)cc1)c1cc(Cl)ccc1O",
    "observed_measurement": 100
  },
  {
    "smi": "O=C(Nc1nc(C(F)(F)F)cs1)c1cc(Cl)ccc1O",
    "observed_measurement": 61
  },
  {
    "smi": "O=C(Nc1ccccn1)c1cc(Cl)ccc1O",
    "observed_measurement": 0
  },
  {
    "smi": "O=C(Nc1cc(C(F)(F)F)ccc1Br)c1cc(Cl)ccc1O",
    "observed_measurement": 100
  },
  {
    "smi": "O=C(Nc1cc(C(F)(F)F)cc(C(F)(F)F)c1)c1cc(Cl)ccc1O",
    "observed_measurement": 96
  },
  {
    "smi": "O=C(NCc1cc(C(F)(F)F)cc(C(F)(F)F)c1)c1cc(Cl)ccc1O",
    "observed_measurement": 63
  },
  {
    "smi": "O=C(Nc1cc(Br)cc(C(F)(F)F)c1)c1cc(Cl)ccc1O",
    "observed_measurement": 100
  },
  {
    "smi": "N#Cc1ccc(NC(=O)c2cc(Cl)ccc2O)cc1",
    "observed_measurement": 29
  },
  {
    "smi": "O=C(Nc1cc(C(F)(F)F)ccc1F)c1cc(Cl)ccc1O",
    "observed_measurement": 100
  },
  {
    "smi": "Cc1cc(C)nc(NC(=O)c2cc(Cl)ccc2O)n1",
    "observed_measurement": 0
  },
  {
    "smi": "O=C(Nc1cc(Cl)cc(Cl)c1)c1cc(Cl)ccc1O",
    "observed_measurement": 58
  },
  {
    "smi": "O=C(Nc1ccncc1Cl)c1cc(Cl)ccc1O",
    "observed_measurement": 8
  }
]
